Test Protocol: MTT cell viability assay in K562 cells
Setup Conditions: human, k562 cells
Reported viability at 72 h, 5000 µM is given for each of the following molecules.

Field: example entries. Status: answers known.
>  <Smiles Repr>
COCC(=O)O

>  <Val>
> 50%

$$$$
>  <Smiles Repr>
C#CCCC(=O)O

>  <Val>
> 50%

$$$$

The record that follows has no viability at 72 h, 5000 µM shown yet.
// query viability at 72 h, 5000 µM value for entry CSCC(=O)O
> 50%
